# Test system: amastigotes forms of the T. cruzi Y strain
# assay_overview: In vitro antitrypanosomal activity against amastigotes of moderately drug-resistant T. cruzi Y strain (Giemsa counting in LLC-MK2 cells)
# Type: cell-based, Trypanosoma cruzi
# recorded_conditions: Trypanosoma cruzi, LLC-MK2; amastigotes, after 72 h; 95% confidence limits in parentheses
pIC50: −log10 of the molar value.
measurement_label: pIC50

Guide cases for pIC50, answers given:
# compound, measurement_label, value_reported
measured = [
    ("COC(=O)C=Cc1ccc2c(c1)C(C(=O)OC)C(c1ccc(OC(C)=O)cc1)O2 (stereo not drawn) [Compound 4]", "pIC50", "< 4.60"),
    ("COC(=O)C=Cc1cc(OC)c2c(c1)C(C(=O)OC)C(c1ccc(O)c(OC)c1)O2 (stereo not drawn) [Compound 2]", "pIC50", "< 4.60"),
]

Q. Provide one value: measured pIC50 of COC(=O)C=Cc1cc(O)c2c(c1)C(C(=O)OC)C(c1ccc(O)c(O)c1)O2 (stereo not drawn) [Compound 3]
A. < 4.60
